Target: Cyclin-dependent kinase 2/cyclin E (Homo sapiens)
Assay: Inhibition of CDK2/Cyclin E in presence of 15 uM ATP
Assay type: protein-complex assay
I'd appreciate it if you marked entries satisfied when IC50 is lower than 20 µM and not satisfied when it is not.

Req: Check if IC50 falls below 20 µM for "Nc1n[nH]c(N)c1/N=N/c1ccccc1CO" .
Resp: satisfied

Req: Please do the same for "Nc1n[nH]c(N)c1/N=N/c1cccc(O)c1" as well.
Resp: satisfied

Req: Next: "Nc1n[nH]c(N)c1/N=N/c1ccccc1O"
Resp: satisfied

Req: Also "Nc1n[nH]c(N)c1/N=N/c1cccc([N+](=O)[O-])c1" , if possible.
Resp: not satisfied

Req: And "Nc1n[nH]c(N)c1/N=N/c1ccc([N+](=O)[O-])cc1" ?
Resp: not satisfied

Req: Record: "Nc1n[nH]c(N)c1/N=N/c1cccc2c1CCCC2"
Resp: satisfied

Req: Now the same for "Nc1n[nH]c(N)c1/N=N/c1ccccc1[N+](=O)[O-]"
Resp: satisfied

Req: Now give it for "Nc1n[nH]c(N)c1/N=N/c1cccc2ccccc12" too.
Resp: satisfied

Req: Next entry: "Nc1n[nH]c(N)c1/N=N/c1ccccc1C(=O)O"
Resp: not satisfied

Req: Try this molecule too: "Nc1n[nH]c(N)c1/N=N/c1ccccc1"
Resp: not satisfied

Req: Next up: "Nc1n[nH]c(N)c1/N=N/c1cccc(C(=O)O)c1"
Resp: not satisfied

Req: What do we get for "Nc1n[nH]c(N)c1/N=N/c1ccc(O)cc1" ?
Resp: satisfied

Req: Please give the result for "Nc1n[nH]c(N)c1/N=N/c1ccc(C(=O)O)cc1" too.
Resp: not satisfied

###

Provide the recorded Activity for the entries that follow.
Test system: MCF7
Assay: Viability of MCF7 cells at 100 uM
Type: functional, Homo sapiens
Answer format: numeric, % implied, no suffix.

Req: Using the record for "Nc1n[nH]c(N)c1/N=N/c1ccc([N+](=O)[O-])cc1" , report its Activity.
Resp: 60

Req: For "Nc1n[nH]c(N)c1/N=N/c1ccccc1[N+](=O)[O-]" then?
Resp: 62

Req: Also check "Nc1n[nH]c(N)c1/N=N/c1ccccc1C(=O)O"
Resp: 97

Req: Try "Nc1n[nH]c(N)c1/N=N/c1ccccc1" next.
Resp: 74

Req: Continue with "Nc1n[nH]c(N)c1/N=N/c1ccccc1O"
Resp: 72

Req: For "Nc1n[nH]c(N)c1/N=N/c1ccc(O)cc1" then?
Resp: 20

Req: // next record "Nc1n[nH]c(N)c1/N=N/c1ccc(C(=O)O)cc1"
Resp: 97

Req: Thanks! And "Nc1n[nH]c(N)c1/N=N/c1cccc2ccccc12" ?
Resp: 56

Req: Now this one: "Nc1n[nH]c(N)c1/N=N/c1cccc(O)c1"
Resp: 71

Req: Input "Nc1n[nH]c(N)c1/N=N/c1cccc([N+](=O)[O-])c1"
Resp: 44

Req: Field entry: "Nc1n[nH]c(N)c1/N=N/c1cccc(C(=O)O)c1"
Resp: 102

Req: Okay, and "Nc1n[nH]c(N)c1/N=N/c1ccccc1CO" ?
Resp: 51

Req: Same for "Nc1n[nH]c(N)c1/N=N/c1cccc2c1CCCC2"
Resp: 39

###

Target: Cyclin-dependent kinase 2/cyclin A (Homo sapiens, UniProt P24941)
Test: Inhibition of CDK2/Cyclin A in presence of 100 uM ATP
pIC50: −log10 of the molar value.
MEASURED_PROPERTY: pIC50

Req: Give its pIC50 value. Item: "Nc1n[nH]c(N)c1/N=N/c1cccc([N+](=O)[O-])c1"
Resp: < 4.00

Req: Next up: "Nc1n[nH]c(N)c1/N=N/c1ccccc1"
Resp: < 4.00

Req: Also "Nc1n[nH]c(N)c1/N=N/c1ccccc1[N+](=O)[O-]" ?
Resp: 4.06

Req: Further, for "Nc1n[nH]c(N)c1/N=N/c1ccc(O)cc1" ?
Resp: 4.16

Req: Now the same for "Nc1n[nH]c(N)c1/N=N/c1ccccc1CO"
Resp: < 4.00

Req: Same question, "Nc1n[nH]c(N)c1/N=N/c1cccc(O)c1" this time
Resp: < 4.00

###

Target: Cyclin-dependent kinase 4/cyclin D1 (Homo sapiens, UniProt P11802)
Sequence (P11802 whole entry): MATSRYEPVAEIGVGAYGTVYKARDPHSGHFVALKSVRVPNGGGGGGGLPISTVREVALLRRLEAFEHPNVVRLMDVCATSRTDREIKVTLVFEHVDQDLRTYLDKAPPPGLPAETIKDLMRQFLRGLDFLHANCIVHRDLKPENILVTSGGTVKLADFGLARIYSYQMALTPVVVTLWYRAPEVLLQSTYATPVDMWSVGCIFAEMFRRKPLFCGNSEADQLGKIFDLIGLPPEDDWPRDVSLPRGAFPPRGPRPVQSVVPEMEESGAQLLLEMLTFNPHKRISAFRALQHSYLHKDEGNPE
Sequence (P24385 whole entry, further chain): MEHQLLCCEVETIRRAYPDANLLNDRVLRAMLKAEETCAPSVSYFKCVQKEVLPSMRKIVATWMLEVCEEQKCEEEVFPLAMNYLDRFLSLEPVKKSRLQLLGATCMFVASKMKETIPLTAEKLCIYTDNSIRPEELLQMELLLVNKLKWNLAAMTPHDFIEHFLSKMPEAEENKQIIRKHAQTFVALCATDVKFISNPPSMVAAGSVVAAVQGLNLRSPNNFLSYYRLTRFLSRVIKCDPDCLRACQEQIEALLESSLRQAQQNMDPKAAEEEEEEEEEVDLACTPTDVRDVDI
Experiment: Inhibition of CDK4/Cyclin D1 in presence of 100 uM ATP
Assay type: protein-complex assay
MEASURED_PROPERTY: pIC50
Quick note: pIC50 means taking -log10 of the concentration in moles per liter.

Req: pIC50 for "Nc1n[nH]c(N)c1/N=N/c1cccc(O)c1" ?
Resp: 4.25

Req: Entry "Nc1n[nH]c(N)c1/N=N/c1ccc(O)cc1" please
Resp: 4.87

Req: Same for "Nc1n[nH]c(N)c1/N=N/c1cccc([N+](=O)[O-])c1"
Resp: 4.15

Req: What would you report for "Nc1n[nH]c(N)c1/N=N/c1ccccc1[N+](=O)[O-]" ?
Resp: 4.80

###

Molecular target: CDK9/cyclin T1 (Homo sapiens, UniProt P50750)
Sequence (O60563 whole entry): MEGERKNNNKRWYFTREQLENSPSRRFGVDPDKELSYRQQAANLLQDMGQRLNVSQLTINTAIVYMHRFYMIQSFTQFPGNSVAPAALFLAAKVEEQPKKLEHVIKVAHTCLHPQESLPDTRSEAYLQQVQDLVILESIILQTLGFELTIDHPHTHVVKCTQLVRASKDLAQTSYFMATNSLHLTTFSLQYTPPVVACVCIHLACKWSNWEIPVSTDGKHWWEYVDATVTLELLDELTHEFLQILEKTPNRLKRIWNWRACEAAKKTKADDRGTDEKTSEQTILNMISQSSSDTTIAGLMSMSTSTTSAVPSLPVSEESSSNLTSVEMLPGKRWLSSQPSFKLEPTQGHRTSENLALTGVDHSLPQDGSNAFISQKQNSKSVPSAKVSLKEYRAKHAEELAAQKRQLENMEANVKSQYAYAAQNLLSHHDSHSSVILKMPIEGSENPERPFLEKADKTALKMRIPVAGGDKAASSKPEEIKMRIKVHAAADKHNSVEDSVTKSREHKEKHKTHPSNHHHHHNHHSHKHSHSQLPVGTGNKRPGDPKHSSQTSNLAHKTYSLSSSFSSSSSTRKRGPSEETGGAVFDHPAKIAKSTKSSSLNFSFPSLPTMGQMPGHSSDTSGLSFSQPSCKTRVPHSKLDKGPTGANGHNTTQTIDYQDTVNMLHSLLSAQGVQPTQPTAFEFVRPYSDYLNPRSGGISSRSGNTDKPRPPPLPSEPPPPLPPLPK
Sequence (P50750 whole entry): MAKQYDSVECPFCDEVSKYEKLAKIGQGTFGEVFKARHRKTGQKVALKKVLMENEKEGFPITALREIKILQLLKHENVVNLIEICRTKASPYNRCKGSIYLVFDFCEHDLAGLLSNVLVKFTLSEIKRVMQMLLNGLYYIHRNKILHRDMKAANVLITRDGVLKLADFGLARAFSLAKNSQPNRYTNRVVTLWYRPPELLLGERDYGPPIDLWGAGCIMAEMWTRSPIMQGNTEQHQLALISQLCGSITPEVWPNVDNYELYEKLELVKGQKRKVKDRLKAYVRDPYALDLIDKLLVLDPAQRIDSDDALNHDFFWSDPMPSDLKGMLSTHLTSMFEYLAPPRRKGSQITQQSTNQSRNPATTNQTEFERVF
Experiment: Inhibition of CDK9/Cyclin T1 in presence of 100 uM ATP
Assign IC50 to each entry below.
Field format: number, assumed µM, no unit text.

Req: Consider the compound shown here: "Nc1n[nH]c(N)c1/N=N/c1cccc(O)c1" What is its recorded IC50?
Resp: 1.5

Req: And what about the compound "Nc1n[nH]c(N)c1/N=N/c1ccccc1[N+](=O)[O-]" ?
Resp: 5.6

Req: // next record "Nc1n[nH]c(N)c1/N=N/c1ccccc1"
Resp: 15

Req: Would you kindly repeat that for "Nc1n[nH]c(N)c1/N=N/c1cccc([N+](=O)[O-])c1" ?
Resp: 12.4

Req: Would you mind doing "Nc1n[nH]c(N)c1/N=N/c1ccccc1CO" as well?
Resp: 26

###

Target: Cyclin-dependent kinase 2/cyclin E (Homo sapiens)
Test: Inhibition of CDK2/Cyclin E in presence of 100 uM ATP
Format: protein-complex assay
MEASURED_PROPERTY: pIC50
In textbook form, pIC50 equals minus log to base ten of the concentration in mol/L.

Req: So what's the measured pIC50 for this one? "Nc1n[nH]c(N)c1/N=N/c1ccccc1"
Resp: 4.00

Req: Item: "Nc1n[nH]c(N)c1/N=N/c1cccc([N+](=O)[O-])c1"
Resp: 4.17

Req: Now consider "Nc1n[nH]c(N)c1/N=N/c1cccc(O)c1" .
Resp: 4.29

Req: Next molecule: "Nc1n[nH]c(N)c1/N=N/c1ccccc1CO"
Resp: 4.11

Req: Field entry: "Nc1n[nH]c(N)c1/N=N/c1ccccc1[N+](=O)[O-]"
Resp: 4.66

Req: Please give the result for "Nc1n[nH]c(N)c1/N=N/c1ccc(O)cc1" too.
Resp: 4.70

###

Biological target: Cyclin-dependent kinase 1/cyclin B (Homo sapiens, UniProt P06493)
Assay: Inhibition of CDK1/Cyclin B in presence of 100 uM ATP
Kindly state IC50 for each of the entries shown.

Req: Need IC50, item "Nc1n[nH]c(N)c1/N=N/c1ccc(O)cc1"
Resp: 44 µM

Req: Follow-up item: "Nc1n[nH]c(N)c1/N=N/c1ccccc1"
Resp: > 100 µM

Req: Input "Nc1n[nH]c(N)c1/N=N/c1cccc(O)c1"
Resp: > 100 µM

Req: Lookup "Nc1n[nH]c(N)c1/N=N/c1ccccc1CO"
Resp: > 100 µM

Req: Let us now turn to "Nc1n[nH]c(N)c1/N=N/c1cccc([N+](=O)[O-])c1"
Resp: > 100 µM

Req: What about "Nc1n[nH]c(N)c1/N=N/c1ccccc1[N+](=O)[O-]" ?
Resp: 42 µM

###

Record form. Attribute: IC50. Fill in for each entry.
Molecular target: Cyclin-dependent kinase 7/ cyclin H (Homo sapiens, UniProt P50613)
Sequence (P51946 whole entry): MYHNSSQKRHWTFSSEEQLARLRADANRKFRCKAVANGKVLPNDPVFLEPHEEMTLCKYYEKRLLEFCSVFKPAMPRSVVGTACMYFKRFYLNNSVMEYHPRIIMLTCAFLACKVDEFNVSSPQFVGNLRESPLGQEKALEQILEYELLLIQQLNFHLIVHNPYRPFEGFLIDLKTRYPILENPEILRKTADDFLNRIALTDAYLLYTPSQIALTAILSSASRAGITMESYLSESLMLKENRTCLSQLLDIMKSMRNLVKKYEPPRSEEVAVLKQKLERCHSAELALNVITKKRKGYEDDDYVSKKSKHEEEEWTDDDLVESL
Sequence (P50613 whole entry): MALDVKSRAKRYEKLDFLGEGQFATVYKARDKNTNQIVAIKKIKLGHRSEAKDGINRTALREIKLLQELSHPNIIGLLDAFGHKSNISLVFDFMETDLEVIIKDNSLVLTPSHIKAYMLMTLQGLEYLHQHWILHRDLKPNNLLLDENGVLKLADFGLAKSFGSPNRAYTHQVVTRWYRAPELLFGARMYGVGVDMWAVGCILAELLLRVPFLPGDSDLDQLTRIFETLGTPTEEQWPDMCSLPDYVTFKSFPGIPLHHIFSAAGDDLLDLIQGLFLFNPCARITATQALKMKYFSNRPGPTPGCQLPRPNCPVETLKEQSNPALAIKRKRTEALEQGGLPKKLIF
Experiment: Inhibition of CDK7/Cyclin H in presence of 100 uM ATP

Req: Return reported IC50; argument: "Nc1n[nH]c(N)c1/N=N/c1ccccc1"
Resp: > 100 µM

Req: What do you get for "Nc1n[nH]c(N)c1/N=N/c1cccc(O)c1" ?
Resp: 82 µM

Req: And what about the compound "Nc1n[nH]c(N)c1/N=N/c1cccc([N+](=O)[O-])c1" ?
Resp: > 100 µM

Req: Next compound: "Nc1n[nH]c(N)c1/N=N/c1ccccc1CO"
Resp: > 100 µM

Req: What would you report for "Nc1n[nH]c(N)c1/N=N/c1ccccc1[N+](=O)[O-]" ?
Resp: 77 µM

Req: "Nc1n[nH]c(N)c1/N=N/c1ccc(O)cc1" , same question.
Resp: 26 µM

###

Target: Cyclin-dependent kinase 2/cyclin E (Homo sapiens)
Assay: Inhibition of CDK2/Cyclin E
Details: read-out: Ki app
MEASURED_PROPERTY: pKi
On this scale, pKi is minus log10 of a concentration expressed in M (mol/L).

Req: Give its pKi value. Item: "Nc1n[nH]c(N)c1/N=N/c1ccc(O)cc1"
Resp: 4.88
